system: MS2 coat protein; assay: apparent Kd, MS2 coat protein; higher = weaker binding; RNA-MaP array; settings: designed as: ON switch for flavin mononucleotide; no ligand
Label YES when apparent Kd >= 40 nM; otherwise NO.

Field: example entries. Status: answers known.
{"ITEM_SEQUENCE": "CCGCCACGUCAAGGAUAUGCACGGGAGCCCGUAGCAGAAGGUGAGGCGAACGCCAUCCCACAUGAGGAUCACCCAUGUACGGGC", "CLASS_LABEL": "YES"}
{"ITEM_SEQUENCE": "CGUGAAUACGAAGGAUAUGAAACAUGAGGAUCACCCAUGUAAGGUUUAAGCGACGGCUUGACAGGUCAGAAGGUCGUCCGCAUG", "CLASS_LABEL": "YES"}

INPUT: Dear colleague, could you confirm whether "UUGAUCGCUCAGAAGGACGCGCAGGACCAAGCCGUAGGAUAUGACGAAUGCUAACGGAGUCCACAUGAGGAUCACCCAUGUGCA" has apparent Kd at or above 40 nM?
OUTPUT: YES

INPUT: Dear colleague, could you confirm whether "GUGAUCAGCGAGAAGGAGCGUGAACUGUUACGGAGAUGUAACAUAACAUGAGGAUCACCCAUGUGCUAGGAUAUCGGUAAAUAU" has apparent Kd at or above 40 nM?
OUTPUT: NO

INPUT: Dear colleague, could you confirm whether "UGGACUGUGACAUGAGGAUCACCCAUGUAAAUAAUUCCGCAUAGAAGGGUCCAACGUAAAUGAAGACAGGAUAUAUGGGAGCGU" has apparent Kd at or above 40 nM?
OUTPUT: YES
